Reference source for all entries: ChEMBL document CHEMBL1961873

This section presents compounds with their documented inhibition values.
# assay.system: Tyrosine-protein kinase CSK (Homo sapiens) (UniProt P41240);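 further: each value is an averaged inhibition reading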
# Sequence (P41240 2-450 limits assumed): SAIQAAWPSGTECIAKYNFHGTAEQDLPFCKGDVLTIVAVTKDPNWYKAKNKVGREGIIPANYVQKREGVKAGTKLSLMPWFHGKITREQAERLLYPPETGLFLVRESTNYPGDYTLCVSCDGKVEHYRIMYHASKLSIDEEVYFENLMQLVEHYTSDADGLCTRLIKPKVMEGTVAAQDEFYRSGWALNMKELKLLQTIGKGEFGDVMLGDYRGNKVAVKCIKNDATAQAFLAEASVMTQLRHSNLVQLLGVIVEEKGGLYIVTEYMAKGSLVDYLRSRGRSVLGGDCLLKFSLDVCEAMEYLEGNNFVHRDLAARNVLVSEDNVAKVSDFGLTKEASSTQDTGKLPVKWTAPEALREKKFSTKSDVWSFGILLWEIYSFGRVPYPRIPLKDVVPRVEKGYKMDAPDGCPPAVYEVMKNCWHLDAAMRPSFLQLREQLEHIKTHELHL
# stated.conditions: at 1 µM
Field: numeric (%). Do not append units.

Check out these entries, answers already filled in.
>  <compound>
c1cnn2ncc(-c3ccnc(Nc4ccc5c(c4)OCCO5)n3)c2c1

>  <inhibition / %>
14.9

$$$$
>  <compound>
Cc1ccc(C(=O)NC2CCCCC2)cc1-c1ccc(C(=O)NCC2CC2)cc1

>  <inhibition / %>
1.73

$$$$

// lookup inhibition for CNC(=O)c1cncc(/C=C/c2c(Cl)cccc2Cl)c1 10.6

Item under review: N#Cc1c(NC(=O)c2cccc3ccccc23)sc2c1CCCC2 . Reported inhibition? 0.21
